- System: BDF1 mice, P388 leukemia ip, median survival T/C
- protocol.summary: NCI In Vivo Anticancer Drug Screen. Data for tumor model P388 Leukemia (intraperitoneal) in B6D2F1 (BDF1) mice
- test.context: endpoint: median survival time; dose: 200.0 mg/kg/injection; schedule: Q01DX001 (ip); vehicle: Klucel (hydroxypropylcellulose) (HPC); higher = longer survival
Toxic doses and inconclusive results are not listed.
assay.metric: T/C

[[record]]
molecule = "COc1cc2c(cc1OC)C1CNC(=O)C1C(c1ccccc1)C2 (stereo unspecified)"
measured_target = "BDF1 mice, P388 leukemia ip, median survival T/C"
experimental_value = "100 % of control"

[[record]]
molecule = "O=C(c1ccccc1)C1Cc2ccccc2C1=O (stereo unspecified)"
measured_target = "BDF1 mice, P388 leukemia ip, median survival T/C"
experimental_value = "100 % of control"

[[record]]
molecule = "C/C=C(/C)N(C(C)=O)N(C(C)=O)c1ccc([N+](=O)[O-])cc1[N+](=O)[O-]"
measured_target = "BDF1 mice, P388 leukemia ip, median survival T/C"
experimental_value = "100 % of control"

[[record]]
molecule = "Cc1nc(Cl)c2c(n1)Oc1nc(C)nc(Cl)c1C2c1ccc(Cl)cc1"
measured_target = "BDF1 mice, P388 leukemia ip, median survival T/C"
experimental_value = "95 % of control"

[[record]]
molecule = "CCCCCCCCS.[Ni]"
measured_target = "BDF1 mice, P388 leukemia ip, median survival T/C"
experimental_value = "100 % of control"

[[record]]
molecule = "O=C(CBr)NCC1OC(n2cnc3c(=O)[nH]cnc32)C(O)C1O (stereo unspecified)"
measured_target = "BDF1 mice, P388 leukemia ip, median survival T/C"
experimental_value = "106 % of control"


====

- Test system: BDF1 mice, P388 leukemia ip, median survival T/C
- protocol.summary: NCI In Vivo Anticancer Drug Screen. Data for tumor model P388 Leukemia (intraperitoneal) in B6D2F1 (BDF1) mice
- test.context: endpoint: median survival time; dose: 50.0 mg/kg/injection; schedule: Q01DX009 (ip); vehicle: saline; higher = longer survival
Inconclusive results and toxic doses are left out.
assay.metric: T/C

[[record]]
molecule = "CCOC(=O)c1cc(-c2ccccc2)[nH]c1-c1ccccc1"
experimental_value = "96 % of control"

[[record]]
molecule = "N=C(N)N.O=S(=O)(O)[O][Al]1[O]S(=O)(=O)[O]1"
experimental_value = "100 % of control"

[[record]]
molecule = "N/C(=N/N=C/c1ccncc1)N[N+](=O)[O-]"
experimental_value = "90 % of control"

[[record]]
molecule = "NC(CCC(=O)c1ccccn1)C(=O)O (stereo unspecified)"
experimental_value = "98 % of control"

[[record]]
molecule = "CN(C)CCCN=C1Nc2ccccc2C(=NCCCN(C)C)Nc2ccccc21"
experimental_value = "100 % of control"

[[record]]
molecule = "CC(C)(C)C1=CC(C(C)(C)C)CCC1=O (stereo unspecified)"
experimental_value = "86 % of control"

[[record]]
molecule = "CCCCCCCCCCCC[N+](CC)(CC)CC(=O)O"
experimental_value = "113 % of control"

[[record]]
molecule = "CC(C)(C)C([NH-])=O.CC(C)(C)C([NH-])=O.[Cl][Pt+2][Cl]"
experimental_value = "94 % of control"

[[record]]
molecule = "C[CH2][Ge]1([CH2]C)[CH2]CC2(CCN(CCCN(C)C)C2)C[CH2]1"
experimental_value = "102 % of control"

[[record]]
molecule = "CCCCCCC(=O)NC1=C(N2CC2)C(=O)C(NC(=O)CCCCCC)=C(N2CC2)C1=O"
experimental_value = "241 % of control"

[[record]]
molecule = "COc1ccc(CN(C(C)=O)c2cc(C)c([N+](=O)[O-])cc2OC)cc1OC"
experimental_value = "87 % of control"

[[record]]
molecule = "CC1CN1P1(N2CC2C)=NP(N2CC2C)(N2CC2C)=NP(N2CC2C)(N2CC2C)=N1 (stereo unspecified)"
experimental_value = "203 % of control"

[[record]]
molecule = "C1CC[N-]CC1.C1CC[N-]CC1.C1CC[N-]CC1.C1CC[N-]CC1.CC(=N\\[O-])/C(C)=N/O.CC(=N\\[O-])/C(C)=N/O.[Cl-].[Cl-].[Cl][Rh][Cl].[Rh+3]"
experimental_value = "98 % of control"

[[record]]
molecule = "O=C(O)c1cc(O)c(O)c(O)c1"
experimental_value = "100 % of control"

[[record]]
molecule = "C=Cc1ccc(Oc2ccccc2)cc1"
experimental_value = "104 % of control"

[[record]]
molecule = "NNc1ncnc2c1ncn2C1OC(CO)C(O)C1O (stereo unspecified)"
experimental_value = "113 % of control"


====

- Tested on: BDF1 mice, P388 leukemia ip, median survival T/C
- protocol.summary: NCI In Vivo Anticancer Drug Screen. Data for tumor model P388 Leukemia (intraperitoneal) in B6D2F1 (BDF1) mice
- test.context: endpoint: median survival time; dose: 25.0 mg/kg/injection; schedule: Q01DX009 (ip); vehicle: Klucel (hydroxypropylcellulose) (HPC)
Toxic doses and inconclusive results are not listed. The calls were made as follows: active = survival T/C of 150% or more; inactive = T/C below 125% in these data.
Outcome codes: class 1 = active, class 0 = inactive

[[record]]
compound = "CC(Cc1ccccc1)NC1CC2CCC1C2 (stereo not drawn)"
measured_target = "BDF1 mice, P388 leukemia ip, median survival T/C"
assigned_label = "class 0"

[[record]]
compound = "Cc1nc2ccccc2c(Cl)c1C"
measured_target = "BDF1 mice, P388 leukemia ip, median survival T/C"
assigned_label = "class 0"

[[record]]
compound = "Oc1ccc(Br)c2cccnc12"
measured_target = "BDF1 mice, P388 leukemia ip, median survival T/C"
assigned_label = "class 0"

[[record]]
compound = "C[n+]1ccc(Nc2ccc(NC(=O)c3ccc(C(=O)Nc4ccc(Nc5cc[n+](C)c(N)n5)cc4)cc3)cc2)nc1N"
measured_target = "BDF1 mice, P388 leukemia ip, median survival T/C"
assigned_label = "class 1"

[[record]]
compound = "CN(C)C=O.CN(C)C=O.[Cl][Sn]([Cl])([Cl])[Cl]"
measured_target = "BDF1 mice, P388 leukemia ip, median survival T/C"
assigned_label = "class 0"

[[record]]
compound = "C[n+]1ccc(Nc2ccc(NC(=O)c3ccc(Nc4cc[n+](C)c5ccc(N)cc45)cc3N)cc2)cc1"
measured_target = "BDF1 mice, P388 leukemia ip, median survival T/C"
assigned_label = "class 0"

[[record]]
compound = "O=C(O)/C=C/C(=O)Nc1ccc(Cl)c(Cl)c1"
measured_target = "BDF1 mice, P388 leukemia ip, median survival T/C"
assigned_label = "class 0"

[[record]]
compound = "CCCCCCC(=O)NC1=C(N2CC2)C(=O)C(NC(=O)CCCCCC)=C(N2CC2)C1=O"
measured_target = "BDF1 mice, P388 leukemia ip, median survival T/C"
assigned_label = "class 1"


====

- System: BDF1 mice, P388 leukemia ip, median survival T/C
- protocol.summary: NCI In Vivo Anticancer Drug Screen. Data for tumor model P388 Leukemia (intraperitoneal) in B6D2F1 (BDF1) mice
- test.context: endpoint: median survival time; dose: 50.0 mg/kg/injection; schedule: Q01DX009 (ip); vehicle: saline with Tween-80; higher = longer survival
- Method: The antitumor activity of compounds was measured in mice bearing transplantable tumors. Survival or tumor size were measured and the results are expressed as the measurement made in the treated group (T) divided by the measurement made in the vehicle treated control group (C). The tumor model used in this assay is P388 Leukemia (intraperitoneal) in B6D2F1 (BDF1) mice
Inconclusive results and toxic doses are left out.
assay.metric: T/C

[[record]]
molecule = "Cc1csc2ccccc12"
assay_metric = "T/C"
experimental_value = "119 % of control"

[[record]]
molecule = "c1ccc2c(c1)ccc1nc3c4ccccc4c4ccccc4c3nc12"
assay_metric = "T/C"
experimental_value = "114 % of control"

[[record]]
molecule = "O=C(Nc1cccc2c(OC(=O)C(Cl)Cl)c(N=Nc3ccc(S(=O)(=O)Nc4nccs4)cc3)cc(N=Nc3ccc(S(=O)(=O)Nc4nccs4)cc3)c12)C(Cl)Cl (tested in a mixture with another compound)"
assay_metric = "T/C"
experimental_value = "110 % of control"

[[record]]
molecule = "C=CCN(CC=C)CCSC(=S)NCCOC"
assay_metric = "T/C"
experimental_value = "95 % of control"

[[record]]
molecule = "O=C(NC(=O)c1c(F)cccc1F)Nc1nc(-c2ccccc2)cs1"
assay_metric = "T/C"
experimental_value = "100 % of control"

[[record]]
molecule = "CCCCCCCCSC(=S)N(C)NC(=O)c1ccccn1"
assay_metric = "T/C"
experimental_value = "99 % of control"

[[record]]
molecule = "CS(=O)(=O)CC(O)(c1ccccc1)c1ccncc1 (configuration not stated)"
assay_metric = "T/C"
experimental_value = "96 % of control"


====

- Tested on: BDF1 mice, P388 leukemia ip, median survival T/C
- protocol.summary: NCI In Vivo Anticancer Drug Screen. Data for tumor model P388 Leukemia (intraperitoneal) in B6D2F1 (BDF1) mice
- test.context: endpoint: median survival time; dose: 12.5 mg/kg/injection; schedule: Q01DX009 (ip); vehicle: saline with Tween-80; higher = longer survival
- Description: The antitumor activity of compounds was measured in mice bearing transplantable tumors. Survival or tumor size were measured and the results are expressed as the measurement made in the treated group (T) divided by the measurement made in the vehicle treated control group (C). The tumor model used in this assay is P388 Leukemia (intraperitoneal) in B6D2F1 (BDF1) mice
Toxic doses and inconclusive results are not listed.
Quick list: T/C per entry.
assay.metric: T/C

[[record]]
molecule_smiles = "O=C(Nc1ccc(-c2cn3ccccc3n2)cc1)c1cc(Br)ccc1O"
experimental_value = "100 % of control"

[[record]]
molecule_smiles = "Cn1nc(-c2ccccc2)nc1[N+](=O)[O-]"
experimental_value = "114 % of control"

[[record]]
molecule_smiles = "O=C(NS(=O)(=O)c1ccc(Cl)cc1)c1ccccc1"
experimental_value = "99 % of control"


Numbers sourced from PubChem BioAssay AID328.
